The entries below are paired with their reported MIC.
# System: Mycobacterium tuberculosis
# METHOD_DESCRIPTION: Antimycobacterial activity against Mycobacterium tuberculosis My 331/88 after 14 days by micromethod
# Assay type: functional
# PARTICULARS: My 331/88, 336 h
Please provide the amount together with its unit, number first.

Here's what some known entries look like.
O=[N+]([O-])c1ccc(CSc2nnnn2Cc2ccccc2)c([N+](=O)[O-])c1: 8 µM
O=[N+]([O-])c1cc(Cn2nnc(SCc3ccccc3)n2)cc([N+](=O)[O-])c1: 16 µM
O=[N+]([O-])c1cc(CSc2nnn(Cc3ccc(Cl)cc3)n2)cc([N+](=O)[O-])c1: 1 µM
Cn1nnnc1SCc1cc([N+](=O)[O-])cc([N+](=O)[O-])c1: 4 µM
COc1ccc(C[Se]c2nnnn2Cc2ccc([N+](=O)[O-])cc2[N+](=O)[O-])cc1: 4 µM
O=[N+]([O-])c1cc(Cn2nnc([Se]Cc3ccccc3)n2)cc([N+](=O)[O-])c1: 8 µM
O=[N+]([O-])c1cc(C[Se]c2nnnn2Cc2ccccc2)cc([N+](=O)[O-])c1: 1 µM
COc1ccc(C[Se]c2nnnn2Cc2cc([N+](=O)[O-])cc([N+](=O)[O-])c2)cc1: 16 µM
O=[N+]([O-])c1ccc(Cn2nnc([Se]Cc3ccccc3)n2)c([N+](=O)[O-])c1: 1 µM
O=[N+]([O-])c1ccc(CSc2nnn(Cc3ccccc3)n2)c([N+](=O)[O-])c1: 4 µM

Task: Param item = O=[N+]([O-])c1cc(C[Se]c2nnn(Cc3ccccc3)n2)cc([N+](=O)[O-])c1 ; retrieve measured MIC.
Output: 1 µM

Task: Again, but for O=[N+]([O-])c1cc(CSc2nnn(Cc3ccc(Cl)c(Cl)c3)n2)cc([N+](=O)[O-])c1
Output: 1 µM

Task: Again, but for O=[N+]([O-])c1cc(CSc2nnnn2Cc2ccccc2)cc([N+](=O)[O-])c1
Output: 1 µM

Task: Again, but for Cn1nnnc1[Se]Cc1cc([N+](=O)[O-])cc([N+](=O)[O-])c1
Output: 8 µM

Task: Again, but for O=[N+]([O-])c1cc(Cn2nnnc2SCc2ccccc2)cc([N+](=O)[O-])c1
Output: 8 µM

====

# System: Mycobacterium kansasii
# METHOD_DESCRIPTION: Antimycobacterial activity against Mycobacterium kansasii 6509/96 after 7 days by micromethod
# Type: functional
# PARTICULARS: 6509/96, 168 h
MIC strictly under 20 µM means MET; at 20 µM or over means NOT MET.

These recorded examples may help you get a feel for the data.
Cn1nnnc1[Se]Cc1ccc([N+](=O)[O-])cc1[N+](=O)[O-]: NOT MET
Cn1nnc(SCc2ccc([N+](=O)[O-])cc2[N+](=O)[O-])n1: NOT MET
O=[N+]([O-])c1ccc(C[Se]c2nnnn2Cc2ccc([N+](=O)[O-])cc2)cc1: NOT MET
Cn1nnnc1[Se]Cc1cc([N+](=O)[O-])cc([N+](=O)[O-])c1: MET

Task: Lab note: confirm whether the reported MIC for this molecule is below 20 µM, equality not counting. molecule: O=[N+]([O-])c1ccc(Cn2nnc([Se]Cc3ccccc3)n2)c([N+](=O)[O-])c1
Output: MET

Task: Again, but for Cn1nnnc1SCc1cc([N+](=O)[O-])cc([N+](=O)[O-])c1
Output: MET

Task: Again, but for Cn1nnnc1SCc1ccc([N+](=O)[O-])cc1[N+](=O)[O-]
Output: NOT MET

Task: Again, but for O=[N+]([O-])c1ccc(Cn2nnnc2[Se]Cc2ccccc2)c([N+](=O)[O-])c1
Output: MET

Task: Again, but for O=[N+]([O-])c1cc(CSc2nnnn2Cc2ccc(Cl)c(Cl)c2)cc([N+](=O)[O-])c1
Output: MET

Task: Again, but for O=[N+]([O-])c1cc(Cn2nnc([Se]Cc3ccccc3)n2)cc([N+](=O)[O-])c1
Output: MET
